Target: Protein cereblon/Tyrosine-protein kinase BTK (Homo sapiens, UniProt Q06187+Q96SW2)
Sequence (Q06187 2-659 limits assumed): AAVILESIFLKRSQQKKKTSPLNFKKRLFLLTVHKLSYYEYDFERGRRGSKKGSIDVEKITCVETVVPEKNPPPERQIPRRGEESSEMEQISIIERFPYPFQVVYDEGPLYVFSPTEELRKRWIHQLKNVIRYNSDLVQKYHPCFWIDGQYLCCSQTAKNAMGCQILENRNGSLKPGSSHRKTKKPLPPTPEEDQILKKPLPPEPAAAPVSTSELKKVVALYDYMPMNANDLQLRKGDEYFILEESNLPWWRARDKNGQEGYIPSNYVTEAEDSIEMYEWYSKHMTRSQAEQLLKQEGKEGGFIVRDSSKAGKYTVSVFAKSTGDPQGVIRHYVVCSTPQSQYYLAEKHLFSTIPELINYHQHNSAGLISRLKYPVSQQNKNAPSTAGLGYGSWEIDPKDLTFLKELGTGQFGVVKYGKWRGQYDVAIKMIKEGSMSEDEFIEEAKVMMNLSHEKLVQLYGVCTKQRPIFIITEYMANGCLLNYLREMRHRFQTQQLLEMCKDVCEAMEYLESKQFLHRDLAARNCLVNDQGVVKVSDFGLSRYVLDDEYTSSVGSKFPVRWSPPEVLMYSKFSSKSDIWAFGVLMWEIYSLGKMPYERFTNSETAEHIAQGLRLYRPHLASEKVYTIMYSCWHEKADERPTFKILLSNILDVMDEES
Sequence (Q96SW2 whole entry partner): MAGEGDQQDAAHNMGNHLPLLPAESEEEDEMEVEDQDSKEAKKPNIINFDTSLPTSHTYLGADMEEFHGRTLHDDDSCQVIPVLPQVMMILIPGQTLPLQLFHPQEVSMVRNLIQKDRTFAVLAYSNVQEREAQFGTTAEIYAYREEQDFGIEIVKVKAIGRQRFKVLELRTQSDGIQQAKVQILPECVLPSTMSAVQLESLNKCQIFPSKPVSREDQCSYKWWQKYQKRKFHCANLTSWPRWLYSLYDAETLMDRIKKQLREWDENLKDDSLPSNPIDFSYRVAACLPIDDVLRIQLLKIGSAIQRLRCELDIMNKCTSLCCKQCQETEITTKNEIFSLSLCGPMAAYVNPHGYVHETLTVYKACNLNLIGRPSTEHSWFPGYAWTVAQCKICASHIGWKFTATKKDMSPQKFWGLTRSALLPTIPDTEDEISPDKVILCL
Assay: PROTAC activity at CRBN/BTK in human JeKo-1 cells assessed as BTK degradation at 100 nM incubated for 24 hrs by Western blot analysis relative to control
Format: cell-based
VALUE KIND: Activity (%)

Answered examples (3):
{"COMPOUND": "O=C1CCC(c2ccc(N3CCC(CCN4CCC(CC(=O)N[C@H]5CC[C@@H](Nc6ncnc7[nH]cc(C(=O)c8ccc(Oc9ccccc9)cc8)c67)CC5)CC4)CC3)cc2)C(=O)N1 (stereo not given in full)", "DATA VALUE": 69}
{"COMPOUND": "O=C1CCC(N2Cc3cc(N4CCC(CCN5CCC(CC(=O)NC6CCN(c7ncnc8[nH]cc(C(=O)c9ccc(Oc%10ccccc%10)cc9Cl)c78)CC6)CC5)CC4)c(F)cc3C2=O)C(=O)N1 (stereo not given)", "DATA VALUE": 88}
{"COMPOUND": "O=C1CCC(N2Cc3cc(N4CCC(CCN5CCC(CC(=O)N[C@@H]6CC[C@H](Nc7ncnc8[nH]cc(C(=O)c9ccc(Oc%10ccccc%10)cc9Cl)c78)C6)CC5)CC4)c(F)cc3C2=O)C(=O)N1 (stereo not given in full)", "DATA VALUE": 88}

(A) O=C1CCC(N2Cc3cc(N4CCC(CCN5CCC(CC(=O)N[C@H]6CC[C@@H](Nc7ncnc8[nH]cc(C(=O)c9ccc(Oc%10ccccc%10)cc9)c78)CC6)CC5)CC4)c(F)cc3C2=O)C(=O)N1 (stereo not given in full)
(B) O=C1CCC(N2Cc3cc(N4CCC(CCN5CCC(CC(=O)N[C@@H]6CCC[C@H](Nc7ncnc8[nH]cc(C(=O)c9ccc(Oc%10ccccc%10)cc9Cl)c78)C6)CC5)CC4)c(F)cc3C2=O)C(=O)N1 (stereo not given in full)
[ask] I'd appreciate it if you could identify which of A and B has the greater Activity. Respond with the label that goes with your answer.
[reply] A

* * *

Molecular target: Protein cereblon/Tyrosine-protein kinase BTK (Homo sapiens, UniProt Q06187+Q96SW2)
Assay: PROTAC activity at CRBN/BTK in human JeKo-1 cells assessed as BTK degradation at 30 nM incubated for 24 hrs by Western blot analysis relative to control
Format: cell-based
VALUE KIND: Activity (%)

Some compounds with known Activity results, for comparison:
{"COMPOUND": "Cc1ccc(C(=O)N2CCC(CCN3CCC(CC(=O)N[C@H]4CC[C@@H](Nc5ncnc6[nH]cc(C(=O)c7ccc(Oc8ccccc8)cc7Cl)c56)CC4)CC3)CC2)cc1N1CCC(=O)NC1=O", "Activity / %": 60}
{"COMPOUND": "O=C1CCC(NC(=O)c2ccc(N3CCC(CCN4CCC(CC(=O)N[C@H]5CC[C@@H](Nc6ncnc7[nH]cc(C(=O)c8ccc(Oc9ccccc9)cc8Cl)c67)CC5)CC4)CC3)cn2)C(=O)N1 (stereo not given in full)", "Activity / %": 54}
{"COMPOUND": "O=C1CCC(c2ccc(N3CCC(CCN4CCC(CC(=O)N[C@H]5CC[C@H](Nc6ncnc7[nH]cc(C(=O)c8ccc(Oc9ccccc9)cc8)c67)C5)CC4)CC3)nc2)C(=O)N1 (stereo not given in full)", "Activity / %": 94}

(1) O=C1CCC(N2Cc3cc(N4CCC(CCN5CCC(CC(=O)N[C@H]6CC[C@@H](Nc7ncnc8[nH]cc(C(=O)c9ccc(F)cc9Cl)c78)CC6)CC5)CC4)c(F)cc3C2=O)C(=O)N1 (stereo not given in full)
(2) O=C1CCC(c2ccc(N3CCC(CN4CCC(CC(=O)N[C@H]5CC[C@H](Nc6ncnc7[nH]cc(C(=O)c8ccc(Oc9ccccc9)cc8)c67)C5)CC4)CC3)cc2)C(=O)N1 (stereo not given in full)
[ask] Of 1 and 2 , which carries the smaller reported Activity figure? Bench note: the answer is the label of the chosen record.
[reply] 1
